The origin of these recorded values is ChEMBL document CHEMBL1137624.

# experimental-system: Melanocortin receptor 4 (Homo sapiens)
# protocol-notes: Intrinsic activity at human MC4 receptor expressed in CHO cells assessed as cAMP accumulation relative to alpha-MSH
# Format: functional, cell-based
Parameter: Intrinsic activity. Scope: all listed entries.
Give a bare numeral; the unit % is implied.

smiles-notation: CC(C)[C@H](N)c1cccc(F)c1N1CCN(C(=O)[C@@H]2CN(Cc3ccccc3)C[C@H]2c2ccc(Cl)cc2)CC1
Intrinsic activity [%]: 22
--
smiles-notation: CCN1CCC(N2C[C@@H](C(=O)N3CCN(c4ccc(C)cc4[C@@H](N)C(C)C)CC3)[C@H](c3ccc(Cl)cc3)C2)CC1
Intrinsic activity [%]: 3
--
smiles-notation: Cc1ccc(N2CCN(C(=O)[C@@H]3CN(C(=O)C4CCC4)C[C@H]3c3ccc(Cl)cc3)CC2)c([C@@H](N)C(C)C)c1
Intrinsic activity [%]: 22

Now consider a different compound.
Ask: Item CC(C)C[C@H](N)c1cc(C(F)(F)F)ccc1N1CCN(C(=O)[C@@H]2CN(C(=O)c3ccccc3)C[C@H]2c2ccc(Cl)cc2)CC1 with Melanocortin receptor 4 (Homo sapiens) - Intrinsic activity?
Result: 3

###

# experimental-system: Melanocortin receptor 4 (Homo sapiens, UniProt P32245)
# Sequence (P32245 whole entry): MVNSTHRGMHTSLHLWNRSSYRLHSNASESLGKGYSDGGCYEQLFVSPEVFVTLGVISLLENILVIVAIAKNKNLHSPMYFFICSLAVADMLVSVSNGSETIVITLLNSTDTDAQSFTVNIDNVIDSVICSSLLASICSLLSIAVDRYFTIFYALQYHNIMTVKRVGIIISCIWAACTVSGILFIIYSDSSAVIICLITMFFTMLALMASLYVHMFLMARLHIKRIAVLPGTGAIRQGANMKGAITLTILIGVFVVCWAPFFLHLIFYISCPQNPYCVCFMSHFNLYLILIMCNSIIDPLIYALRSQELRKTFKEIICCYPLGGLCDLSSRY
# protocol-notes: Intrinsic activity at human MC4 receptor expressed in CHO cells assessed as cAMP accumulation relative to alpha-MSH
# Type: functional, cell-based
Parameter: Intrinsic activity. Scope: all listed entries.
Give a bare numeral; the unit % is implied.

Solved entries:
compound: Cc1ccc(N2CCN(C(=O)[C@@H]3CN(C(=O)OC(C)(C)C)C[C@H]3c3ccc(Cl)cc3)CC2)c([C@@H](N)C(C)C)c1
experimental-system: Melanocortin receptor 4 (Homo sapiens, UniProt P32245)
uom: %
Intrinsic activity: 0

compound: Cc1ccc(N2CCN(C(=O)[C@@H]3CN(C4CCN(C(C)C)CC4)C[C@H]3c3ccc(Cl)cc3)CC2)c([C@@H](N)C(C)C)c1
experimental-system: Melanocortin receptor 4 (Homo sapiens, UniProt P32245)
uom: %
Intrinsic activity: 1

compound: CCC(=O)N1C[C@@H](C(=O)N2CCN(c3ccc(C)cc3[C@@H](N)C(C)C)CC2)[C@H](c2ccc(Cl)cc2)C1
experimental-system: Melanocortin receptor 4 (Homo sapiens, UniProt P32245)
uom: %
Intrinsic activity: 31

compound: Cc1ccc(N2CCN(C(=O)[C@@H]3CN(C4CCN(CC(C)C)CC4)C[C@H]3c3ccc(Cl)cc3)CC2)c([C@@H](N)C(C)C)c1
experimental-system: Melanocortin receptor 4 (Homo sapiens, UniProt P32245)
uom: %
Intrinsic activity: 1

Ask: Looking for the measured Intrinsic activity of Cc1ccc(N2CCN(C(=O)[C@@H]3CN(C(=O)CCCc4ccccc4)C[C@H]3c3ccc(Cl)cc3)CC2)c([C@@H](N)C(C)C)c1 , can you help?
Result: 0

Ask: Looking for the measured Intrinsic activity of CC(C)CN1C[C@@H](C(=O)N2CCN(c3c(F)cccc3[C@@H](N)C(C)C)CC2)[C@H](c2ccc(Cl)cc2)C1 , can you help?
Result: 52

Ask: Looking for the measured Intrinsic activity of CC(=O)N1C[C@@H](C(=O)N2CCN(c3ccc(C(F)(F)F)cc3[C@@H](N)CC(C)C)CC2)[C@H](c2ccc(Cl)cc2)C1 , can you help?
Result: 72

Ask: Looking for the measured Intrinsic activity of Cc1ccc(N2CCN(C(=O)[C@@H]3CN(C4CCCCC4)C[C@H]3c3ccc(Cl)cc3)CC2)c([C@@H](N)C(C)C)c1 , can you help?
Result: 21

Ask: Looking for the measured Intrinsic activity of CC(C)C[C@H](N)c1cc(C(F)(F)F)ccc1N1CCN(C(=O)[C@@H]2CN(c3ccccc3)C[C@H]2c2ccc(Cl)cc2)CC1 , can you help?
Result: 24

Ask: Looking for the measured Intrinsic activity of CC(C)[C@H](N)c1cccc(F)c1N1CCN(C(=O)[C@@H]2CN(C3CCCC3)C[C@H]2c2ccc(Cl)cc2)CC1 , can you help?
Result: 80

Ask: Looking for the measured Intrinsic activity of CC(C)[C@H](N)c1cccc(F)c1N1CCN(C(=O)C2CN(Cc3ccccc3)CC2c2ccc(Cl)cc2)CC1 (stereo not given in full) , can you help?
Result: 19

Ask: Looking for the measured Intrinsic activity of CC(C)[C@H](N)c1cccc(F)c1N1CCN(C(=O)[C@@H]2CN(C3CCCCC3)C[C@H]2c2ccc(Cl)cc2)CC1 , can you help?
Result: 49

Ask: Looking for the measured Intrinsic activity of CCCC(=O)N1C[C@@H](C(=O)N2CCN(c3ccc(C)cc3[C@@H](N)C(C)C)CC2)[C@H](c2ccc(Cl)cc2)C1 , can you help?
Result: 14

Ask: Looking for the measured Intrinsic activity of Cc1ccc(N2CCN(C(=O)[C@@H]3CN(C4CCOCC4)C[C@H]3c3ccc(Cl)cc3)CC2)c([C@@H](N)C(C)C)c1 , can you help?
Result: 105

Ask: Looking for the measured Intrinsic activity of COCC(C)N1C[C@@H](C(=O)N2CCN(c3ccc(C)cc3[C@@H](N)C(C)C)CC2)[C@H](c2ccc(Cl)cc2)C1 (stereo not given in full) , can you help?
Result: 36
